These entries and their values trace back to PubChem BioAssay (NCATS).

Assay: qHTS for differential inhibitors of proliferation of Plasmodium falciparum line HB3 (AID 1886);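 note: parasites grown with compound for 72 h before SYBR Green readout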; note: potency is the fitted concentration of half-maximal effect
Details: Plasmodium falciparum HB3 proliferation inhibition; series mostly up to 28.7 µM
Results filed as inconclusive are left out. Activity calls are given as the source filed them. Calls come from the whole dose curve; as a rule, active = well fitted curve in the direction sought with a large enough effect; inconclusive = small, poorly fitted or top-dose-only effect, or another doubt; inactive = no such curve, though single readings can be large or run the other way.
QUANTITY_MEASURED: Potency

* CCS(=O)(=O)Nc1cccc(C(=C2CCCCC2)c2cnc[nH]2)c1 | 12.6 µM (active)
* NCCCP(=O)(O)O | inactive
* CC1(C(=O)O)C2CCC(O2)C1(C)C(=O)O (stereo unspecified) | 2.24 µM (active)
* CN(C(=O)Cc1ccc(Cl)c(Cl)c1)C(CN1CCCC1)c1cccc(OCC(=O)O)c1 (stereo unspecified) | inactive
* C[N+]1(C)CCN(c2ccccc2)CC1 | inactive
* CC(C)(C)c1cc(C=C(C#N)C#N)cc(C(C)(C)C)c1O | 1 µM (active)
* C[N+]1(C)C2CCC1CC(OC(=O)c1c[nH]c3ccccc13)C2 (stereo unspecified) | 14.1 µM (active)
* CCCN(CCC)[C@H]1CCc2c(F)ccc(O)c2C1 | 1.41 µM (active)
* C=CCN1CCC23c4c5ccc(O)c4O[C@H]2C(=O)CC[C@@]3(O)C1C5 (stereo partly specified) | inactive
* N[C@@]1(C(=O)O)CC[C@@H](C(=O)O)C1 | inactive
* C[C@H](Cc1ccc2c(c1)OC(C(=O)O)(C(=O)O)O2)NC[C@H](O)c1cccc(Cl)c1 | inactive
